measurementTarget: SERCA2a (Mus musculus, UniProt O55143)
Construct: host or cells: HL-1 cells
Sequence (O55143 1-998 isoform O55143-2): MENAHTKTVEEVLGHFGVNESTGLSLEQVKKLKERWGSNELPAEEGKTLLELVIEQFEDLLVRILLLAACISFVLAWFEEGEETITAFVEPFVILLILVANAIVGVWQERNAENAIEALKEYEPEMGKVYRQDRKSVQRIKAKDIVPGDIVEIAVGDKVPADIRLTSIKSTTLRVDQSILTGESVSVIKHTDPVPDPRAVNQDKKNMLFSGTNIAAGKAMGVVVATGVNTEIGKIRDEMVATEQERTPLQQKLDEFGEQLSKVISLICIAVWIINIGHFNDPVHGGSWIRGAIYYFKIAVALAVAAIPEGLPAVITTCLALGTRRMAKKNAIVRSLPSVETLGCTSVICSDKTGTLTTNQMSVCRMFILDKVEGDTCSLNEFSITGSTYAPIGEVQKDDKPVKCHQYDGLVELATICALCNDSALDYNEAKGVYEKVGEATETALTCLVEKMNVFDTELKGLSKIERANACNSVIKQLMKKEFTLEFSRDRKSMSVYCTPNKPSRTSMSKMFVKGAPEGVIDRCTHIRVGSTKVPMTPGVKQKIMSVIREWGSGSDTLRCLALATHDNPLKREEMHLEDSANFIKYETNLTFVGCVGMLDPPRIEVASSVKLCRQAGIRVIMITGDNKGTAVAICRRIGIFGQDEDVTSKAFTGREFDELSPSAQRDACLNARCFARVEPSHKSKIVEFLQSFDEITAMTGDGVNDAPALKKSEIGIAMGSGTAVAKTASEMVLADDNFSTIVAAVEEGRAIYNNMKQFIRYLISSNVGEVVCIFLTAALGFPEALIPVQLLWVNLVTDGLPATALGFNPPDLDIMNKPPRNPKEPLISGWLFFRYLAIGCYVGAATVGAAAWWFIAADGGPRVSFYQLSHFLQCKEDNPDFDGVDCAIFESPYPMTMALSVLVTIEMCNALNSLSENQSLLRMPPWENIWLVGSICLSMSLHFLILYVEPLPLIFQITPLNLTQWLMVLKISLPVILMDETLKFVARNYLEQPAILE
assayOverview: NADH-coupled ATPase assay on mouse heart ventricular SR microsomes (mouse SR)
Format: biochemical
experimentalContext: 10 μM (3 μM for 12b per Figure 6c), microsomal membrane vesicles
From the text: Cyclopropanol derivatives have a variety of biological activities including enzyme inhibition and antibacterial and anticancer properties.[47]−[50] However, there have been no published reports on cyclopropanol-containing molecules specifically acting as modulators of RyRs and/or activators of SERCA. To investigate more directly whether the compounds influence the SERCA2 activity, we performed nicotinamide adenine dinucleotide (NADH) fluorescence-coupled ATPase assay according to Radnai et al.[51] […]
propertyName: SERCA2a mouse SR effect class

Query block: Consider the compound shown here: COc1ccc(SCCCNCCCCC2(O)CC2)cc1 [11c] What is its recorded SERCA2a mouse SR effect class?
Result block: +++

Query block: Consider the compound shown here: COc1ccc2c(c1)CN(CCCCC1(O)CC1)CCS2 [11d] What is its recorded SERCA2a mouse SR effect class?
Result block: ++

Query block: Consider the compound shown here: COc1ccc2c(c1)CN(CCCCN(CCCCC1(O)CC1)CCCCC1(O)CC1)CCS2 [12a] What is its recorded SERCA2a mouse SR effect class?
Result block: +++

Query block: Consider the compound shown here: COc1ccc2c(c1)CN(CCCCNCCCCC1(O)CC1)CCS2 [11a] What is its recorded SERCA2a mouse SR effect class?
Result block: +

Query block: Consider the compound shown here: COc1ccc2c(c1)CN(Cc1ccc(C(=O)O)cc1)CCS2 [ARM210, reference compound] What is its recorded SERCA2a mouse SR effect class?
Result block: ++

Query block: Consider the compound shown here: COc1ccc(OCCCNCCCCC2(O)CC2)cc1 [11b] What is its recorded SERCA2a mouse SR effect class?
Result block: +

Consider the record given below.
Query block: Consider the compound shown here: COc1ccc(SCCCN(CCCCC2(O)CC2)CCCCC2(O)CC2)cc1 [12c] What is its recorded SERCA2a mouse SR effect class?
Result block: +
